target: CaSla1-D1-D2; assay: SPOT peptide array binding signal intensity (averaged, normalized) (arbitrary units (background-subtracted, floor 0; scale differs between SH3 domains)); higher = stronger binding of the SH3 domain to the peptide
List of SPOT peptide array binding signal intensity values.
Keep it simple and answer with nothing but the number.

Known results for binders:
{"columns": ["binder", "reported-measurement"],
 "data": [
  ["HGKRRAPLLLAKLDV", 122],
  ["KNRKNLPTIPIRLSG", 672],
  ["AHFQPQRTAPKPPIS", 54.5]
]}

Now examine the next entry.
Ask | Item under review: MAMRPIPPLPTESEY . Reported SPOT peptide array binding signal intensity?
Reply | 128
